experimental-target: T1, human IL-1β (human, UniProt P01584 117-269)
T1 construct: also called hIL-1β; rhIL-1 beta
method-description: yeast surface Fab display, flow cytometry titration
measurement-name: EC50 (pM)
Reply with just the number (in pM).

Prompt: Field request: EC50 | item: ABT2-108-614/ABT1-122 Fab on yeast surface (Fab, V domains shown) VH: EVQLLESGGGLVQPGGSLRLSCAASGFTFAEYTMMWVRQAPGKGLEWVSRIGQDGKNTYYADSVKGRFTISRDNSKNTLYLQMNSLRAEDTAVYYCAKYTGRILRHHLFDYWGQGTLVTVSS VL: DIQMTQSPSSLSASVGDRVTITCRASQPIWTELNWYQQKPGKAPKLLIYGSSSLQSGVPSRFSGSGSGTDFTLTISSLQPEDFATYYCQQFAYFPATFGQGTKVEIKR
Response: 1010

Prompt: Field request: EC50 | item: ABT2-108-617/ABT1-122 Fab on yeast surface (Fab, V domains shown) VH: EVQLLESGGGLVQPGGSLRLSCAASGFTFAEYTMMWVRQAPGKGLEWVSRIGQDGKNTYYADSVKGRFTISRDNSKNTLYLQMNSLRAEDTAVYYCAKYTGRIFTHHLFDYWGQGTLVTVSS VL: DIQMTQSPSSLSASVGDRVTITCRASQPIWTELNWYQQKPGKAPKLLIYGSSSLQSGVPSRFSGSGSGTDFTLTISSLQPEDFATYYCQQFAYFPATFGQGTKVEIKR
Response: 224

Prompt: Field request: EC50 | item: ABT2-108-615/ABT1-122 Fab on yeast surface (Fab, V domains shown) VH: EVQLLESGGGLVQPGGSLRLSCAASGFTFAEYTMMWVRQAPGKGLEWVSRIGQDGKNTVIRDSVKGRFTISRDNSKNTLYLQMNSLRAEDTAVYYCAKYTGRVGVHHLFDYWGQGTLVTVSS VL: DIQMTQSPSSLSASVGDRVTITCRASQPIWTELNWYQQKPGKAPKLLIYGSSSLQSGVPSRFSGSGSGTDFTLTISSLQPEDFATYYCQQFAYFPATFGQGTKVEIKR
Response: 214
